# experimentalSystem: CD80-CD28 interaction (Homo sapiens)
# assayExplanation: Homogenous Time Resolved Fluorescence (HTRF) assay, cell free
# Assay type: binding
# testParameters: cell-free HTRF, compound concentration series 100 μM-1.7 nM, 4 hours at room temperature; read-out: Activity (EC50 in the HTRF assay)
pEC50: −log10 of the molar value.
reportedProperty: pEC50

1. CC[C@@H](C)NC(=O)c1ccc(-n2[nH]c3c(nnc4ccccc43)c2=O)cc1 [Example 70] ... > 6.00
2. CCCCCCNC(=O)c1ccc(-n2[nH]c3c(nnc4ccccc43)c2=O)cc1 [Example 113] ... 5.00 to 6.00
3. O=C(NCC1CCCO1)Nc1ccc(-n2[nH]c3c(nnc4ccccc43)c2=O)cc1 (stereo not shown) [Example 198] ... 5.00 to 6.00
4. CCCCCCCCCCCCOCCCNC(=O)Nc1ccc(-n2[nH]c3c(nnc4ccccc43)c2=O)cc1 [Example 159] ... > 6.00
5. CC1C(NC(=O)c2ccc(-n3[nH]c4c(nnc5ccccc54)c3=O)cc2)CC2CC1C2(C)C (stereo not shown) [Example 121] ... 5.00 to 6.00
6. COCCNC(=O)c1ccc(-n2[nH]c3c(nnc4ccccc43)c2=O)cc1 [Example 9a] ... 5.00 to 6.00
7. Cc1ccc2[nH]cc(CCNC(=O)c3ccc(-n4[nH]c5c(nnc6ccccc65)c4=O)cc3)c2c1 [Example 16] ... < 5.00
8. O=C(NCCNc1cccc2ccccc12)c1ccc(-n2[nH]c3c(nnc4ccccc43)c2=O)cc1 [Example 65] ... 5.00 to 6.00
9. CN(C)CCNC(=O)Nc1ccc(-n2[nH]c3c(nnc4ccccc43)c2=O)cc1 [Example 130] ... > 6.00
10. C=CCNC(=O)Nc1ccc(-n2[nH]c3c(nnc4ccccc43)c2=O)cc1 [Example 131] ... > 6.00

###

# experimentalSystem: CD80-CD28 interaction (Homo sapiens, UniProt P33681)
# Sequence (P33681 35-242 limits assumed): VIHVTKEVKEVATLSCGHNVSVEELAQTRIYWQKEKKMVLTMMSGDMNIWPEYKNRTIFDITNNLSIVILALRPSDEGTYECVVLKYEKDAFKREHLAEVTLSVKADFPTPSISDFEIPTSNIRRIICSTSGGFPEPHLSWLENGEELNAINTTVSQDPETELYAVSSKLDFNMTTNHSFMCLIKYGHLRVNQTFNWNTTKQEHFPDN
# assayExplanation: Homogenous Time Resolved Fluorescence (HTRF) assay, cell free
# Type: binding
# testParameters: cell-free HTRF, concentration series 100 μM-1.7 nM, 4 hours at room temperature; read-out: Activity (EC50 in the HTRF assay)
Reported EC50 by item:
reportedProperty: EC50

1) O=C(NCCCN1CCCCCC1)c1ccc(-n2[nH]c3c(nnc4c(F)cccc43)c2=O)cc1 ... < 1 µM
2) CC(C)(C)CNC(=O)c1ccc(-n2[nH]c3c(nnc4c(F)cccc43)c2=O)cc1 ... < 1 µM
3) O=C(NCCCCF)c1ccc(-n2[nH]c3c(nnc4c(F)cccc43)c2=O)cc1 ... < 1 µM
4) CCCN(CC)C(=O)c1ccc(-n2[nH]c3c(nnc4c(F)cccc43)c2=O)cc1 ... 1 to 10 µM
5) CC1(C)CCCC(C)(C)N1CCCCNC(=O)c1ccc(-n2[nH]c3c(nnc4c(F)cccc43)c2=O)cc1 ... < 1 µM
6) CC(CO)NC(=O)c1ccc(-n2[nH]c3c(nnc4c(F)cccc43)c2=O)cc1 (stereo not drawn) ... < 1 µM

###

# experimentalSystem: CD80-CD28 interaction (Homo sapiens)
# assayExplanation: Homogenous Time Resolved Fluorescence (HTRF) assay, cell free
# Format: binding
# testParameters: cell-free HTRF, compound concentration series 100 μM-1.7 nM, 4 hours at room temperature; read-out: Activity (EC50 in the HTRF assay)
pEC50: −log10 of the molar value.
# pEC50 per record follows
reportedProperty: pEC50

1) CCOC(=O)C(C)NC(=O)c1ccc(-n2[nH]c3c(nnc4ccccc43)c2=O)cc1 (stereo not drawn) [Example 118] ... 5.00 to 6.00
2) O=C(NCCCN1CCOCC1)Nc1ccc(-n2[nH]c3c(nnc4ccccc43)c2=O)cc1 [Example 179] ... > 6.00
3) CC(NC(=O)c1ccc(-n2[nH]c3c(nnc4ccccc43)c2=O)cc1)c1ccccc1 (stereo not drawn) [Example 19] ... < 5.00
4) O=C(NCCCO)c1ccc(-n2[nH]c3c(nnc4ccccc43)c2=O)cc1 [Example 111] ... 5.00 to 6.00
5) CCOC(=O)C1CCCC1NC(=O)Nc1ccc(-n2[nH]c3c(nnc4ccccc43)c2=O)cc1 (stereo not drawn) [Example 164] ... < 5.00
6) COC(CNC(=O)c1ccc(-n2[nH]c3c(nnc4ccccc43)c2=O)cc1)OC [Example 106] ... 5.00 to 6.00
7) CCN(CC)CCCC(C)NC(=O)Nc1ccc(-n2[nH]c3c(nnc4ccccc43)c2=O)cc1 (stereo not drawn) [Example 168] ... > 6.00
8) CNCCNC(=O)c1ccc(-n2[nH]c3c(nnc4ccccc43)c2=O)cc1 [Example 48] ... > 6.00
9) CC1CCCCN1CCCNC(=O)c1ccc(-n2[nH]c3c(nnc4ccccc43)c2=O)cc1 (stereo not drawn) [Example 32] ... > 6.00
10) CCCCCCC(C)NC(=O)c1ccc(-n2[nH]c3c(nnc4ccccc43)c2=O)cc1 (stereo not drawn) [Example 27] ... < 5.00
11) O=C(NC1CC1)c1ccc(-n2[nH]c3c(nnc4ccccc43)c2=O)cc1 [Example 78] ... 5.00 to 6.00
12) CCCCCOC(=O)CNC(=O)Nc1ccc(-n2[nH]c3c(nnc4ccccc43)c2=O)cc1 [Example 216] ... < 5.00
13) CC(C)C(C)NC(=O)c1ccc(-n2[nH]c3c(nnc4ccccc43)c2=O)cc1 (stereo not drawn) [Example 33] ... 5.00 to 6.00
14) CC(C)(C)OC(=O)CNC(=O)Nc1ccc(-n2[nH]c3c(nnc4ccccc43)c2=O)cc1 [Example 205] ... < 5.00
15) CC(C)C(C)NC(=O)Nc1ccc(-n2[nH]c3c(nnc4ccccc43)c2=O)cc1 (stereo not drawn) [Example 173] ... 5.00 to 6.00
16) CNCCCNC(=O)c1ccc(-n2[nH]c3c(nnc4ccccc43)c2=O)cc1 [Example 52] ... > 6.00
17) CCOC(=O)CCC(NC(=O)Nc1ccc(-n2[nH]c3c(nnc4ccccc43)c2=O)cc1)C(=O)OCC (stereo not drawn) [Example 189] ... 5.00 to 6.00
18) CN1CCN(CCCNC(=O)c2ccc(-n3[nH]c4c(nnc5ccccc54)c3=O)cc2)CC1 [Example 10] ... > 6.00
19) CC(C)(C)C1CCC(NC(=O)c2ccc(-n3[nH]c4c(nnc5ccccc54)c3=O)cc2)CC1 (stereo not drawn) [Example 38] ... < 5.00
20) COC(=O)CNC(=O)Nc1ccc(-n2[nH]c3c(nnc4ccccc43)c2=O)cc1 [Example 154] ... 5.00 to 6.00
21) COc1ccc2[nH]cc(CCNC(=O)Nc3ccc(-n4[nH]c5c(nnc6ccccc65)c4=O)cc3)c2c1 [Example 172] ... 5.00 to 6.00
22) O=C(NCCCCc1ccccc1)c1ccc(-n2[nH]c3c(nnc4ccccc43)c2=O)cc1 [Example 73] ... 5.00 to 6.00
23) CCOC(=O)C(C)NC(=O)Nc1ccc(-n2[nH]c3c(nnc4ccccc43)c2=O)cc1 (stereo not drawn) [Example 158] ... 5.00 to 6.00
24) O=CCCNC(=O)Nc1ccc(-n2[nH]c3c(nnc4ccccc43)c2=O)cc1 [Example 170] ... < 5.00

###

In this section we review reported EC50 values for a set of molecules.
# experimentalSystem: CD80-CD28 interaction (Homo sapiens, UniProt P33681)
# assayExplanation: Homogenous Time Resolved Fluorescence (HTRF) assay, cell free
# Assay type: binding
# testParameters: cell free HTRF assay; concentration series 100 μM-1.7 nM; 4 hours at room temperature; read-out: Activity (EC50 in the HTRF assay)
reportedProperty: EC50

1. CCCCCCCCCCCCOCCCNC(=O)c1ccc(-n2[nH]c3c(nnc4ccccc43)c2=O)cc1 ... > 10000 nM
2. CC1(C)CC(NC(=O)c2ccc(-n3[nH]c4c(nnc5cccc(F)c54)c3=O)cc2)CC(C)(C)N1 ... < 1000 nM
3. C=CCNC(=O)c1ccc(-n2[nH]c3c(nnc4c(F)cccc43)c2=O)cc1 ... < 1000 nM
4. CN(C)CCCNC(=O)c1ccc(-n2[nH]c3c(nnc4cccc(F)c43)c2=O)cc1 ... < 1000 nM
5. CCCNCCNC(=O)c1ccc(-n2[nH]c3c(nnc4ccccc43)c2=O)cc1 ... > 10000 nM
